- target system: hOCT2 (Homo sapiens, UniProt O15244)
- Sequence (O15244 whole entry): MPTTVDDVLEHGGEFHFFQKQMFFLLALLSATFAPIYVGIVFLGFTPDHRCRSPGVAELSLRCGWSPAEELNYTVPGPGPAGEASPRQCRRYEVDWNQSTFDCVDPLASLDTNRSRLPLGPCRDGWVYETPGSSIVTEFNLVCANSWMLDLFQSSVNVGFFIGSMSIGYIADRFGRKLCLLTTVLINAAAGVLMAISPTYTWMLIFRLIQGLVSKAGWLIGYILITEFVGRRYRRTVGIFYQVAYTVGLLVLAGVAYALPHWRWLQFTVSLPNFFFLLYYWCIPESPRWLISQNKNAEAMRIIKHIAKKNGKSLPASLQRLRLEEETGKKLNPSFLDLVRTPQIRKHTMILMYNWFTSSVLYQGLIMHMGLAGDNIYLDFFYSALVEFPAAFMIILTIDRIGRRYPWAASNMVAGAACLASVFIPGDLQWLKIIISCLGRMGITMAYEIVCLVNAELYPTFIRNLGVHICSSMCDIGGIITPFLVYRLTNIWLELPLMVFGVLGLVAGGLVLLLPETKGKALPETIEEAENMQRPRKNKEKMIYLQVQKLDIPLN
- protocol: Inhibition of hOCT2-mediated 14C-metformin uptake in transfected HEK293 cells
- Format: cell-based
- Set-up: expressed in transfected cells; host or cells: HEK293 (stably transfected)
- run parameters: 10 µM test compound; 1 µM [14C]metformin, 2 min, HEK293; negative = stimulation
Reported Inhibitory Effects (%) hOCT2 10 µM Mean is given for each of the following molecules.
Number in %, nothing else.

CCN1/C(=C/c2ccc3ccccc3[n+]2CC)C=Cc2ccccc21.[I-] 67
Clc1cccc(Cl)c1N=C1NCCN1 40

Could you now look at the following molecule, please?
Req: Give hOCT2 (Homo sapiens, UniProt O15244) Inhibitory Effects (%) hOCT2 10 µM Mean for CO/C=C(/C(=O)OC)c1ccccc1Oc1cc(Oc2ccccc2C#N)ncn1
Resp: −40

----------
- target system: mOct2 (Mus musculus)
- Sequence (O70577 1-553): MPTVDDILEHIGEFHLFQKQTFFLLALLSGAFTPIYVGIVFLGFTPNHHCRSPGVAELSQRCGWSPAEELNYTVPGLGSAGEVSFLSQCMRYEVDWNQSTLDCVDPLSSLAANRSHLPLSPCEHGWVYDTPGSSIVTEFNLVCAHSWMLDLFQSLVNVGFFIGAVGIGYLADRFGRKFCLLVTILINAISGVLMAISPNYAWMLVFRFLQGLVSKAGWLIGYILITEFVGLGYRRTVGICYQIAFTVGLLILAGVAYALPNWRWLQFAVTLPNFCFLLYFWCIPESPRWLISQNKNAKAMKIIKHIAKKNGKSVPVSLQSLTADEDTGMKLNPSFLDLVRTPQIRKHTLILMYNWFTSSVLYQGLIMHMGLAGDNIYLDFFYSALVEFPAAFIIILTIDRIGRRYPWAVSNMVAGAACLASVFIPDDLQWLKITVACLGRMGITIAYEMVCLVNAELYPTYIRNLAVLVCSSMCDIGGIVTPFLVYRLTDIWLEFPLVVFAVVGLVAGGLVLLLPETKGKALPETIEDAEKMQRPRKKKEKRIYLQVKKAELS
- protocol: Inhibition of mOct2-mediated 14C-metformin uptake in transfected HEK293 cells
- Format: cell-based
- Design: expressed in transfected cells; host or cells: HEK293 (stably transfected)
- run parameters: read-out: IC50, mOct2-mediated metformin uptake; control inhibitor; 350 µM metformin; 0.1-100 µM inhibitor
property name: pIC50
In plain terms, pIC50 is the concentration in mol/L turned into minus its base-10 logarithm.

Req: Using the record for CCN1/C(=C/c2ccc3ccccc3[n+]2CC)C=Cc2ccccc21.[I-] [Decynium22] , report its pIC50.
Resp: 5.59

----------
- target system: hOCT2 (Homo sapiens, UniProt O15244)
- protocol: Inhibition of hOCT2-mediated 14C-metformin uptake in transfected HEK293 cells
- Type: cell-based
- Design: expressed in transfected cells; host or cells: HEK293 (stably transfected)
- run parameters: HEK293, read-out: Inhibitory Effects (%) hOCT2 100 µM Mean
Reported inhibition at 100 µM is given for each of the following compounds.
Number in %, nothing else.

compound	units text	inhibition at 100 µM
C=CCOC(Cn1ccnc1)c1ccc(Cl)cc1Cl (stereo not drawn) [Imazalil]	%	93
O=[N+]([O-])NC1=NCCN1Cc1ccc(Cl)nc1 [Imidacloprid]	%	-43

Req: Using the record for O=C(O)CNCP(=O)(O)O [Glyphosat] , report its inhibition at 100 µM.
Resp: -48
